DC50 values for the compounds below.
Target: IKZF2 (Homo sapiens (Human), UniProt Q96SW2+Q9UKS7)
Sequence (Q9UKS7 whole entry): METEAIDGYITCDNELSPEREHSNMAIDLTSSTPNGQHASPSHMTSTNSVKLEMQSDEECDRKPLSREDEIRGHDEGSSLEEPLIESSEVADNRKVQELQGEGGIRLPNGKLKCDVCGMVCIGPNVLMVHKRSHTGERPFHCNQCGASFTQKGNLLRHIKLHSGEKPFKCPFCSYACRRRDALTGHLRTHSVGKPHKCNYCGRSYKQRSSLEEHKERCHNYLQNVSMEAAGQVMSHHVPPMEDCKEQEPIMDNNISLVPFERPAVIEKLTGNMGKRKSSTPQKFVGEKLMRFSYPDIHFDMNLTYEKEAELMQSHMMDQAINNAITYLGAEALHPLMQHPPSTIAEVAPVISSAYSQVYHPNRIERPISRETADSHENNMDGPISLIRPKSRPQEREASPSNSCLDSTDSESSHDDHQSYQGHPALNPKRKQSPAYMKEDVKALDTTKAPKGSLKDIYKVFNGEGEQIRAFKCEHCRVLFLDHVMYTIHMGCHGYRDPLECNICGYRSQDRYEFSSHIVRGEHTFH
Sequence (Q96SW2 whole entry): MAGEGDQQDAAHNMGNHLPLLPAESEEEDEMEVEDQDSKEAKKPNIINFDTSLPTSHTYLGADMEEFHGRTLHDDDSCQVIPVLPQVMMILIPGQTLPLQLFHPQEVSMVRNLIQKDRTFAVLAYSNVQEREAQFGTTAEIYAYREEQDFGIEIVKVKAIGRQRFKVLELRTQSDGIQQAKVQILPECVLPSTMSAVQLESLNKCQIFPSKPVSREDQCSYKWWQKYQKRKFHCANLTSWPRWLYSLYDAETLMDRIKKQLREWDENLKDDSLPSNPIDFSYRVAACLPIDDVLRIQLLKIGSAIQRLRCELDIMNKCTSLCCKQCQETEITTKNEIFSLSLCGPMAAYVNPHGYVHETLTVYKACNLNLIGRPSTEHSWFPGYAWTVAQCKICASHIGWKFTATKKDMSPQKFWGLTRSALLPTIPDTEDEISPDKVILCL
Sequence (Q16531 whole entry partner): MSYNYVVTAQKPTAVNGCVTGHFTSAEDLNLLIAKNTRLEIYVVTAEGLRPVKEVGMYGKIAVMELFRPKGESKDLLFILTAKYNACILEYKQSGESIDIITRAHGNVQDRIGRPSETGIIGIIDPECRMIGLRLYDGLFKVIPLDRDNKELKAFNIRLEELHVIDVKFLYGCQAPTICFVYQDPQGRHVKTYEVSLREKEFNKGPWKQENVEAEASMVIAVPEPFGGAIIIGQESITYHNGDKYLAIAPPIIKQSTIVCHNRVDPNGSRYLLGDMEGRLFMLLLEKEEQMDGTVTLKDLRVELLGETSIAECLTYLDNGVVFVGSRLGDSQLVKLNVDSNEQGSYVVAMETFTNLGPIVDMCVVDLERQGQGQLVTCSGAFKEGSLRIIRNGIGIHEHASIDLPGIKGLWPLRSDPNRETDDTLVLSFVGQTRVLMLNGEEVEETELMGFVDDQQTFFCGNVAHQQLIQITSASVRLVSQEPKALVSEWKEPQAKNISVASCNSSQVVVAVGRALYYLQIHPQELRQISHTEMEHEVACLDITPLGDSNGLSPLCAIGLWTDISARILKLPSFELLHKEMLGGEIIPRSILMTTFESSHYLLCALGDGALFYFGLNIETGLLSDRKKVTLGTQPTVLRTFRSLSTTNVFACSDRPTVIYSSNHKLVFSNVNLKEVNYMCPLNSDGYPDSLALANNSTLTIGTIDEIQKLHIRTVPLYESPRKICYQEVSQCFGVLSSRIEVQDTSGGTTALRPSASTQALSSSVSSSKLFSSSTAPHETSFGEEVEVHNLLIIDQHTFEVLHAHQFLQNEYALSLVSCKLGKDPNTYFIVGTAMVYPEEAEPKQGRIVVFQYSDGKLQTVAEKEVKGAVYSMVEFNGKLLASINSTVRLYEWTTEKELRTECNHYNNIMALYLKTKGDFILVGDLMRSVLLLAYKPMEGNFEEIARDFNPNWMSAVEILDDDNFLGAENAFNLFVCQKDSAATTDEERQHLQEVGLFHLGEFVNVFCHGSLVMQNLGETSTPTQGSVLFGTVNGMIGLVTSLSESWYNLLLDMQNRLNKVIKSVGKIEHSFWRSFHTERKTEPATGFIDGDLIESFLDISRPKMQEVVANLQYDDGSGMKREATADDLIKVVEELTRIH
Experiment: IKZF2 HiBit Assay (HEK293T Flp-in-HiBiT cells)
Assay type: cell-based
Details: HEK293T Flp-in-HiBiT cells, 6 hrs; read-out: IKZF2 HiBit degradation DC50

# example entries with known answers
compound: [2H]C([2H])([2H])n1cc(-c2cccc(CN3CCC4(COc5c4ccc4c5CN([C@H]5CCC(=O)NC5=O)C4=O)C(F)(F)C3)c2)cn1 (stereo partly shown)
DC50: < 1 nM

compound: O=C1CC[C@H](N2Cc3c(ccc4c3OCC43CCN(Cc4cn(-c5ccc(Cl)cc5)nc4Cl)CC3)C2=O)C(=O)N1
DC50: 1 to 10 nM

compound: [2H]C([2H])(c1cccc(-c2cnn(C([2H])([2H])[2H])c2)c1)N1CCC2(CC1)COc1c2ccc2c1CN([C@H]1CCC(=O)NC1=O)C2=O
DC50: 1 to 10 nM

compound: O=C1CC[C@H](N2Cc3c(ccc4c3OCC43CCN(Cc4cn(-c5ccc(Cl)cc5)nc4C(F)(F)F)CC3)C2=O)C(=O)N1
DC50: 1 to 10 nM

compound: O=C1CC[C@H](N2Cc3c(ccc4c3OCC43CCN(Cc4cnn(CC5CCS(=O)(=O)CC5)c4)CC3(F)F)C2=O)C(=O)N1 (stereo partly shown)
DC50: 10 to 100 nM

compound: O=C1CC[C@H](N2Cc3c(ccc4c3OC[C@@]43CCN(Cc4cccc(-c5cnn(C6COC6)c5)c4)CC3(F)F)C2=O)C(=O)N1
DC50: 1 to 10 nM

compound: O=C1CC[C@H](N2Cc3c(ccc4c3OCC43CCN(Cc4cc(-c5ccc(Cl)cc5)no4)CC3)C2=O)C(=O)N1
DC50: 1 to 10 nM

compound: Cn1cc2cc(CN3CCC4(COc5c4ccc4c5CN([C@H]5CCC(=O)NC5=O)C4=O)C(F)(F)C3)ccc2n1 (stereo partly shown)
DC50: 1 to 10 nM

Item: CC1CN(Cc2cccc(-c3cnn(C)c3)c2)CCC12COc1c2ccc2c1CN(C1CCC(=O)NC1=O)C2=O (stereo not shown) | System: IKZF2 (Homo sapiens (Human), UniProt Q96SW2+Q9UKS7) | DC50: 1 to 10 nM

Short answer on IKZF2 (Homo sapiens (Human), UniProt Q96SW2+Q9UKS7) for O=C1CC[C@H](N2Cc3c(ccc4c3OCC43CCN(Cc4cnn(CC5CCOCC5)c4)CC3(F)F)C2=O)C(=O)N1 (stereo partly shown) , DC50: 1 to 10 nM

Tested on IKZF2 (Homo sapiens (Human), UniProt Q96SW2+Q9UKS7), the item O=C1CC[C@H](N2Cc3c(ccc4c3OCC43CCN(Cc4cccc5[nH]ncc45)CC3(F)F)C2=O)C(=O)N1 (stereo partly shown) showed DC50 equal to 1 to 10 nM

Form: item O=C1CC[C@H](N2Cc3c(ccc4c3NCC43CCN(Cc4ccccc4)CC3)C2=O)C(=O)N1 ; test system IKZF2 (Homo sapiens (Human), UniProt Q96SW2+Q9UKS7); DC50: 10 to 100 nM

The value of DC50 recorded for [2H]C([2H])(c1cccc(-c2cnn(C(F)F)c2)c1)N1CCC2(CC1)COc1c2ccc2c1CN([C@H]1CCC(=O)NC1=O)C2=O when tested on IKZF2 (Homo sapiens (Human), UniProt Q96SW2+Q9UKS7) reads 1 to 10 nM
